Experimental Target: N-type calcium channel subunits (α1B, α2δ, and β3a) (Homo sapiens)
Sequence (Q00975 whole entry): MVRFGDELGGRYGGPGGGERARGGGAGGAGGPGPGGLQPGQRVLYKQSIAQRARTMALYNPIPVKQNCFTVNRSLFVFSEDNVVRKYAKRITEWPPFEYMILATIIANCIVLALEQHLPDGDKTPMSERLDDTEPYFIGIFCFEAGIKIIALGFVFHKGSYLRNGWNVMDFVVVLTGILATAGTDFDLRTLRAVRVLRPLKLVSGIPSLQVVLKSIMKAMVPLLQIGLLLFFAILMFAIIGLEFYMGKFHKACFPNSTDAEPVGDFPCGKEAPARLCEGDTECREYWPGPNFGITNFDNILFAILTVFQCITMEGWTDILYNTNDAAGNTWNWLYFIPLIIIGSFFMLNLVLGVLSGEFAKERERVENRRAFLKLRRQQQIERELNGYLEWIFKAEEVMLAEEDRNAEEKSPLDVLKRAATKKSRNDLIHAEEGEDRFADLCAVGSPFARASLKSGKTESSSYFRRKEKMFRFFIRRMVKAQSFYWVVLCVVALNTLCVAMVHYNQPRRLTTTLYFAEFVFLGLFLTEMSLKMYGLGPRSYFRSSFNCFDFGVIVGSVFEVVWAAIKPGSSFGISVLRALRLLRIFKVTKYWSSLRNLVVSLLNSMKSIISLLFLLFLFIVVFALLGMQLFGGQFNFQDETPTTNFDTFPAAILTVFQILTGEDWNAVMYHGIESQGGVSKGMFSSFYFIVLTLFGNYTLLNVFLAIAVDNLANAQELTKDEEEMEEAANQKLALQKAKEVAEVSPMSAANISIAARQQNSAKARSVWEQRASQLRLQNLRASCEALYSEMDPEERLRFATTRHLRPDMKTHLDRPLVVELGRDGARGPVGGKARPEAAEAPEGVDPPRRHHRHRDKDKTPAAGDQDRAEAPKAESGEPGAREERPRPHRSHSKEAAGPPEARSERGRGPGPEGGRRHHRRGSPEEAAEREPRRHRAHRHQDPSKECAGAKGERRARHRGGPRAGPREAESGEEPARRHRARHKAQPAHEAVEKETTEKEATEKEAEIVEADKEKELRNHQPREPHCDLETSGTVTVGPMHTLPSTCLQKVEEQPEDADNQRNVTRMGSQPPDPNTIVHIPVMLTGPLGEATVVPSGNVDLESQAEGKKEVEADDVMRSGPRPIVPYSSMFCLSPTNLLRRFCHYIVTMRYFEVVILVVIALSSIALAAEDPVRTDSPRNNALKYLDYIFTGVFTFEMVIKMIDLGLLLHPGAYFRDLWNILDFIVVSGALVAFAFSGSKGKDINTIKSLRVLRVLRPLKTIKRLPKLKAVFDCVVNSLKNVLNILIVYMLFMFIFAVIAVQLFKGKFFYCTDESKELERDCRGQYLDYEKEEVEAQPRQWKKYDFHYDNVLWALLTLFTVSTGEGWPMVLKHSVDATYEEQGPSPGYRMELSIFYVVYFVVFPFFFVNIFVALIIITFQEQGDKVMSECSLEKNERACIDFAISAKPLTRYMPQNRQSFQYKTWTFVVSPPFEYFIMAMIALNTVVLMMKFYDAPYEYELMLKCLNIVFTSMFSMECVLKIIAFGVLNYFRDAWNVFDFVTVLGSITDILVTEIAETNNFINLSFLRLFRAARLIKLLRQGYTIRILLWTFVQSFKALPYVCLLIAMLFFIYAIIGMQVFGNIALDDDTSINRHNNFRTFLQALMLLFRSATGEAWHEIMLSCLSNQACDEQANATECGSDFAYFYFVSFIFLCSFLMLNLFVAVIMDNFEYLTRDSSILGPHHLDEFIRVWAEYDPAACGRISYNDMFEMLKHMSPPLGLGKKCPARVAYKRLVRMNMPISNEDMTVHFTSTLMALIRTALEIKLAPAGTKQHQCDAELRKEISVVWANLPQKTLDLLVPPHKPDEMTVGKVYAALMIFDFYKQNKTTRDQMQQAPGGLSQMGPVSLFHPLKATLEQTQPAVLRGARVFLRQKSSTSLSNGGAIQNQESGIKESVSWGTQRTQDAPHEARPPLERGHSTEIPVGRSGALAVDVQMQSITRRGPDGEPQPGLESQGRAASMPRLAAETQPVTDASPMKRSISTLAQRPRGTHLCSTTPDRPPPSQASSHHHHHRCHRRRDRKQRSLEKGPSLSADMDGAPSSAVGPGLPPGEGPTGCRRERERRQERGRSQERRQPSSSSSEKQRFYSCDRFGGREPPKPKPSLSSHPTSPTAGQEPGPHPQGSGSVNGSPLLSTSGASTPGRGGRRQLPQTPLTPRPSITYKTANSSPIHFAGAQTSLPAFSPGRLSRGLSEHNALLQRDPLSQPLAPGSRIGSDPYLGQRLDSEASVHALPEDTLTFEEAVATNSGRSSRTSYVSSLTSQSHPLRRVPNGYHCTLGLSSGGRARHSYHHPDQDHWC
Sequence (P54289 25-1103 partner): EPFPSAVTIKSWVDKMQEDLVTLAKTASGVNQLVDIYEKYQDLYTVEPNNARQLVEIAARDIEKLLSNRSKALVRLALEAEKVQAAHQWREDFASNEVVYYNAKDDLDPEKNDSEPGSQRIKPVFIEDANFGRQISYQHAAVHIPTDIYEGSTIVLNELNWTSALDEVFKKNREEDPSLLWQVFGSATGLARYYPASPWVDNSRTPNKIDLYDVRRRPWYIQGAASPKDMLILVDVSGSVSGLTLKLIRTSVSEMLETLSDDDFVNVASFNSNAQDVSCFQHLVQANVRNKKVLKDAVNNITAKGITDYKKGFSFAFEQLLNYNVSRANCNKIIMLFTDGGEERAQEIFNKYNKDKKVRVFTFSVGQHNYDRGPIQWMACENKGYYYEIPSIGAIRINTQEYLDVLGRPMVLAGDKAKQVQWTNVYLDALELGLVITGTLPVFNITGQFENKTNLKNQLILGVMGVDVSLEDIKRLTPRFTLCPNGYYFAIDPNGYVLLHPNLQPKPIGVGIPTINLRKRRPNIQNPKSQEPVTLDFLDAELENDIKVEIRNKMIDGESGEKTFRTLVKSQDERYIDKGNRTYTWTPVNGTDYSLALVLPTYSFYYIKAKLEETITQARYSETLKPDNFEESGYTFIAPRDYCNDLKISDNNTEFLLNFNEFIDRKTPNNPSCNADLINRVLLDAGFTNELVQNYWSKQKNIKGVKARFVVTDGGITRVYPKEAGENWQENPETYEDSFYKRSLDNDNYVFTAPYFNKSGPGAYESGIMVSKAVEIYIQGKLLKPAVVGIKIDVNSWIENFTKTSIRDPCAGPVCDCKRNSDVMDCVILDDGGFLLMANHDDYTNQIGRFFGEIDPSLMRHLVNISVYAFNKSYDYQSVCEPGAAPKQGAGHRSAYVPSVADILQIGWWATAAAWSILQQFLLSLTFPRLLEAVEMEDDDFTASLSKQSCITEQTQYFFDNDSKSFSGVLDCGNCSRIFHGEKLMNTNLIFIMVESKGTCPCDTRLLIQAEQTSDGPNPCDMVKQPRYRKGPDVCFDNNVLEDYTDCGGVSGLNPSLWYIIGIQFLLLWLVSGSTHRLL
Sequence (P54284 whole entry partner): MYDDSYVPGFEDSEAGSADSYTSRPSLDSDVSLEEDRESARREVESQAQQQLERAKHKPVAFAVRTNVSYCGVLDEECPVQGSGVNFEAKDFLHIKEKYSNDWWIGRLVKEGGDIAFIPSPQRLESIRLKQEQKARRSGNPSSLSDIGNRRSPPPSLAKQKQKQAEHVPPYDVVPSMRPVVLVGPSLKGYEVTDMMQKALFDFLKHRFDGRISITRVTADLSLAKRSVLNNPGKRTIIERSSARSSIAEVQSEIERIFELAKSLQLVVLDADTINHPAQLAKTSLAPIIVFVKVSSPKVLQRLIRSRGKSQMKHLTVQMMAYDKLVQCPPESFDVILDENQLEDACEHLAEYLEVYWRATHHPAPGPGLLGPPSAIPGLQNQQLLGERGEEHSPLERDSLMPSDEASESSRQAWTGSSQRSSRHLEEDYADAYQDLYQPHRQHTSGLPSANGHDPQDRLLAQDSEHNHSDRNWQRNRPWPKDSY
Test Description: Block of Cav2.2 channel, whole cell voltage clamp, manual and PatchXpress
Format: cell-based
Assay Setup: Table 5; table follows Assay Example 3 (whole cell voltage clamp / PatchXpress); assay not given
Endpoint Name: IC50 (nM)

Example molecules with recorded IC50:
Cn1nc(C(F)(F)F)cc1NC(=O)[C@H]1C[C@@H](S(=O)(=O)c2cccc(C(F)(F)F)c2)C1	2490
O=C(N[C@H]1CC[C@H](S(=O)(=O)c2cccc(C(F)(F)F)c2)CC1)c1ccc(F)c(C(F)(F)F)c1	800

(P) O=C(NC[C@H]1C[C@H](S(=O)(=O)c2cccc(C(F)(F)F)c2)C1)c1ccnc(C(F)(F)F)n1
(Q) CC(C)(C)S(=O)(=O)c1ccsc1C(=O)N[C@H]1CC[C@H](S(=O)(=O)c2cccc(C(F)(F)F)c2)CC1
(R) O=C(NC[C@H]1C[C@@H](S(=O)(=O)c2cccc(C(F)(F)F)c2)C1)c1cc(F)cc(Cl)c1
Task: Arrange the 3 entries by IC50 so the values rise. Enter labels, ranked according to the request.
Result: P, R, Q

(1) CS(=O)(=O)c1ccc(C(=O)N[C@H]2CC[C@@](F)(S(=O)(=O)c3cccc(C(F)(F)F)c3)CC2)cc1
(2) O=C(N[C@H]1CC[C@H](S(=O)(=O)c2cccc(C(F)(F)F)c2)CC1)c1cc(C(F)(F)F)ccn1
Task: Between 1 and 2 , whose measured IC50 reads higher? // respond with label for picked entry
Result: 1
(1: 8160 nM, 2: 1650 nM)

(a) O=S(=O)(N[C@H]1CC[C@@](F)(S(=O)(=O)c2cccc(C(F)(F)F)c2)CC1)c1ccc(OC(F)(F)F)cc1
(b) Cn1nc(C(F)(F)F)cc1C(=O)N[C@H]1CC[C@@](F)(S(=O)(=O)c2cccc(OC(F)(F)F)c2)CC1
Task: Which record shows the lower IC50: the first, a , or the second, b ? // respond with label for picked entry
Result: b

(a) CS(=O)(=O)c1ccc(C(=O)N[C@H]2CC[C@@](F)(S(=O)(=O)c3cccc(C(F)(F)F)c3)CC2)c(Cl)c1
(b) O=C(NC[C@H]1C[C@H](S(=O)(=O)c2cccc(C(F)(F)F)c2)C1)c1ccc(OCC(F)(F)F)nc1
Task: Which record shows the lower IC50: the first, a , or the second, b ? // respond with label for picked entry
Result: b
(b: 540 nM, a: 2510 nM)

(A) CC(C)(C(=O)N[C@H]1CC[C@@](F)(S(=O)(=O)c2cccc(C(F)(F)F)c2)CC1)S(=O)(=O)c1cccc(C(F)(F)F)c1
(B) Cn1nc(C(F)(F)F)cc1C(=O)NC[C@]1(O)CC[C@@H](S(=O)(=O)c2cccc(C(F)(F)F)c2)CC1
Task: Which record shows the lower IC50: the first, A , or the second, B ? // respond with label for picked entry
Result: A

(P) COc1cc(F)cc(C(=O)N[C@H]2CC[C@H](S(=O)(=O)c3cccc(C(F)(F)F)c3)CC2)c1
(Q) Cn1nc(C(F)(F)F)cc1C(=O)N[C@H]1CC[C@H](CS(=O)(=O)c2cccc(C(F)(F)F)c2)CC1
Task: Which record shows the lower IC50: the first, P , or the second, Q ? // respond with label for picked entry
Result: P
(P: 440 nM, Q: 630 nM)

(A) CC(C)(C)S(=O)(=O)c1ccsc1C(=O)N[C@H]1CC[C@@H](S(=O)(=O)c2cccc(C(F)(F)F)c2)CC1
(B) O=S(=O)(CCC(F)(F)F)N[C@H]1CC[C@@](F)(S(=O)(=O)c2cccc(C(F)(F)F)c2)CC1
Task: Between A and B , whose measured IC50 reads higher? // respond with label for picked entry
Result: B
(B: 790 nM, A: 210 nM)

(I) CC1(CNC(=O)c2ccc(C(F)(F)F)cn2)CCC(F)(S(=O)(=O)c2cccc(C(F)(F)F)c2)CC1 (stereo not drawn)
(II) COc1cc(C(=O)NC[C@H]2C[C@H](S(=O)(=O)c3cccc(C(F)(F)F)c3)C2)cc(Cl)n1
(III) CC1(S(=O)(=O)c2cccc(C(F)(F)F)c2)CCC(NC(=O)c2ccn(CC(F)(F)F)n2)CC1 (stereo not drawn)
Task: # rank_down: sort by IC50, max first Enter labels, ranked according to the request.
Result: III, I, II
